systemUnderTest: UniProtKB Q9UHD2
Sequence (Q9UHD2 whole entry, species assumed): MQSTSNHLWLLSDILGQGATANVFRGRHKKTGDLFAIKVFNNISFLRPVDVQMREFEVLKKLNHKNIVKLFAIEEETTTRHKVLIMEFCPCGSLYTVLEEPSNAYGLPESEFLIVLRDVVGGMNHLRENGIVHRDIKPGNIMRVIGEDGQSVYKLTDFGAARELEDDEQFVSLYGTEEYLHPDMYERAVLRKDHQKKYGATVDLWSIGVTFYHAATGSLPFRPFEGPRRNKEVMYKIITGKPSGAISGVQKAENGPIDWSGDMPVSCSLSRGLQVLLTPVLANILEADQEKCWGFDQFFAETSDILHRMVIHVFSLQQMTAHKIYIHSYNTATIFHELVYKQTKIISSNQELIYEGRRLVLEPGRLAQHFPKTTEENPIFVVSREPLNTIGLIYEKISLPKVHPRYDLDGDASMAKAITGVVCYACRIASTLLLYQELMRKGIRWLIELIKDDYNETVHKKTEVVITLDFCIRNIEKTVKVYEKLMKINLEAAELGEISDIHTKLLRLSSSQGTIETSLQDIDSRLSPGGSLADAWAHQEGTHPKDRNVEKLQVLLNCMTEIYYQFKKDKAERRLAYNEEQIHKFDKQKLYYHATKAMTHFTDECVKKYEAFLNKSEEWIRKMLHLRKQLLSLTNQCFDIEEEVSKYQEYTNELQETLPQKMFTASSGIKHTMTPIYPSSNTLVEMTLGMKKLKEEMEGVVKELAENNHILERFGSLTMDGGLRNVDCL
protocolNotes: TBK biochemical assay
details: 10 point 1:4 dose response, 30 uM top concentration, 90 min at 25° C., LabChip EZ Reader II; read-out: TBK1_IC50
pIC50: −log10 of the molar value.
testReadout: pIC50

| molecule | pIC50 |
| --- | --- |
| COc1nc(Nc2nccc(-c3ccc(OC4CCOCC4)c(C#N)c3)n2)ccc1C1CCN(C)CC1 | > 7.00 |
| CN(C)C(=O)c1ccc(Nc2nccc(-c3ccc(OC4CCOCC4)c(C#N)n3)n2)nc1 | 6.00 to 7.00 |
| COc1nc(Nc2nccc(-c3ccc(OC4CCN(C(=O)[C@H](C)O)CC4(F)F)c(C#N)c3)n2)ccc1N1CCN(C)CC1 (stereo partly shown) | > 7.00 |

Next up:
Ask | Consider the molecule shown here: C[C@@H](O)C(=O)N1CCC(Oc2ccc(-c3ccnc(Nc4cccc(C5CCN(C(CO)CO)CC5)c4)n3)cc2C#N)C(F)(F)C1 (stereo partly shown) What is its recorded pIC50?
Reply | > 7.00
